tested on: Vero-E6 cells; assay: Cytotoxicity CC100 in Vero-E6 cells (72 h); settings: Vero-E6 cells, 72h

[
  {
    "Compound": "COC(=O)[C@]1(C)CCC[C@]2(C)c3cc(OC(C)=O)c(C(C)C)cc3C(=O)C[C@@H]12 [Compound 17a]",
    "Result qualifier": "=",
    "CC100 (100% cytotoxic concentration) / µg/mL": 25
  },
  {
    "Compound": "CC(C)c1cc2c(cc1O)[C@@]1(C)CCC[C@@](C)(CO)[C@@H]1CC2=O [Compound 21a]",
    "Result qualifier": "=",
    "CC100 (100% cytotoxic concentration) / µg/mL": 25
  },
  {
    "Compound": "CC(C)c1cc2c(cc1O)[C@@]1(C)CCC[C@](C)(C(=O)O)[C@@H]1CC2 [Compound 19b, lambertic acid]",
    "Result qualifier": ">",
    "CC100 (100% cytotoxic concentration) / µg/mL": 50
  },
  {
    "Compound": "COC(=O)[C@]1(C)CCC[C@]2(C)c3cc(C(C)=O)c(C(C)C)cc3CC[C@@H]12 [Compound 15a]",
    "Result qualifier": ">",
    "CC100 (100% cytotoxic concentration) / µg/mL": 50
  }
]
